- TESTED TARGET: UniProt P05183
- MEASUREMENT NOTES: Inhibition of CYP3A2-mediated dexamethasone 6β-hydroxylation in rat liver microsomes (HPLC)
- RUN PARAMETERS: male, Sprague Dawley, rat, microsomes, pH 7.4
ATTRIBUTE MEASURED: inhibition at 40 min, 200 µM (%)

[[record]]
molecule = "CC(C)Cc1ccc(C(C)C(=O)O)cc1 (stereo not shown) [Ibuprofen, ibuprofen]"
measurement_units = "%"
value_reported = 38.9


----------
What follows is a record of Ki for CYP3A2 (Rattus norvegicus, UniProt P05183).
ATTRIBUTE MEASURED: Ki

[[record]]
compound = "COc1ccc2[nH]c([S+]([O-])Cc3ncc(C)c(OC)c3C)nc2c1 (centres unmarked)"
value_reported = "39.2 µM"

[[record]]
compound = "CCC(CC)COC(=O)[C@H](C)N[P@](=O)(OC[C@H]1O[C@@](C#N)(c2ccc3c(N)ncnn23)[C@H](O)[C@@H]1O)Oc1ccccc1"
value_reported = "22.5 µM"

